Sourced from ChEMBL document CHEMBL1124984

Recorded inhibition by entry
target: Leukotriene B4 receptor (Homo sapiens) (UniProt Q9NPC1+Q15722); assay: Antagonistic activity against Leukotriene B4 receptor by using [3H]- LTB4 as a radioligand at a concentration of 10e-5 M; assay type: functional
Sequence (Q15722 whole entry, looked up): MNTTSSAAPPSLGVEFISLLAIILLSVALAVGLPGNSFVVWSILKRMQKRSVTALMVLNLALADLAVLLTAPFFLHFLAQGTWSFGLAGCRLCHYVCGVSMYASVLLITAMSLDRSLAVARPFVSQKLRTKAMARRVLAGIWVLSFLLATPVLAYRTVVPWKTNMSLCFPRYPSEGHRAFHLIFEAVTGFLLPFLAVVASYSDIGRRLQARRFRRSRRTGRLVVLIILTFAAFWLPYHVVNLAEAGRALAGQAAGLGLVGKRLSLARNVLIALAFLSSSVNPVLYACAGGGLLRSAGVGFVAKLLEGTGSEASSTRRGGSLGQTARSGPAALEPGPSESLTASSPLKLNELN
Sequence (Q9NPC1 whole entry, looked up): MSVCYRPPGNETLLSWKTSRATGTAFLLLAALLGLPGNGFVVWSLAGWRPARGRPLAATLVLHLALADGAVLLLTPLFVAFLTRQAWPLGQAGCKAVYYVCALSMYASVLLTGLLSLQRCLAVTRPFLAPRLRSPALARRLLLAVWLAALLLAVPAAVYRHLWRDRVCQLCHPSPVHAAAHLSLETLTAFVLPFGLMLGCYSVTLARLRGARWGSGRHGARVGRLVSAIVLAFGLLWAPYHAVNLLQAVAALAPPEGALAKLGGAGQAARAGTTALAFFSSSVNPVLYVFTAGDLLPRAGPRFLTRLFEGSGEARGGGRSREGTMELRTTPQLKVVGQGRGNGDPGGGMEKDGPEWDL
Recorded Metric: inhibition

- Compound Structure String: "COc1ccc(C#CCCCCOc2ccc(C(=O)c3cccc(C(=O)O)c3)cc2CCC(=O)O)cc1"
  Assayed System: "Leukotriene B4 receptor (Homo sapiens) (UniProt Q9NPC1+Q15722)"
  Obs Value: "100%"
- Compound Structure String: "CCCCCCCCCCCCCCOc1ccc(C(=O)c2cccc(C(=O)O)c2)cc1CCC(=O)O"
  Assayed System: "Leukotriene B4 receptor (Homo sapiens) (UniProt Q9NPC1+Q15722)"
  Obs Value: "73%"
- Compound Structure String: "O=C(O)CCc1cc(C(=O)c2cccc(C(=O)O)c2)ccc1OCCCC/C=C/c1ccccc1"
  Assayed System: "Leukotriene B4 receptor (Homo sapiens) (UniProt Q9NPC1+Q15722)"
  Obs Value: "100%"
- Compound Structure String: "O=C(O)CCc1cc(C(=O)c2cccc(C(=O)O)c2)ccc1OCCCCCCc1ccc(Cl)cc1"
  Assayed System: "Leukotriene B4 receptor (Homo sapiens) (UniProt Q9NPC1+Q15722)"
  Obs Value: "100%"
- Compound Structure String: "CS(=O)(=O)c1ccc(/C=C/CCCCOc2ccc(C(=O)c3cccc(C(=O)O)c3)cc2CCC(=O)O)cc1"
  Assayed System: "Leukotriene B4 receptor (Homo sapiens) (UniProt Q9NPC1+Q15722)"
  Obs Value: "98%"
- Compound Structure String: "O=C(O)CCc1cc(C(=O)c2cccc(C(=O)O)c2)ccc1OCCCCc1ccccc1"
  Assayed System: "Leukotriene B4 receptor (Homo sapiens) (UniProt Q9NPC1+Q15722)"
  Obs Value: "78%"
- Compound Structure String: "COc1cccc(CCCCCCOc2ccc(C(=O)c3cccc(C(=O)O)c3)cc2CCC(=O)O)c1"
  Assayed System: "Leukotriene B4 receptor (Homo sapiens) (UniProt Q9NPC1+Q15722)"
  Obs Value: "95%"
- Compound Structure String: "O=C(O)CCc1cc(C(=O)c2cccc(C(=O)O)c2)ccc1OCCCCCCc1ccccc1"
  Assayed System: "Leukotriene B4 receptor (Homo sapiens) (UniProt Q9NPC1+Q15722)"
  Obs Value: "100%"
- Compound Structure String: "CCOc1ccc(C(=O)c2cccc(C(=O)O)c2)cc1CCC(=O)O"
  Assayed System: "Leukotriene B4 receptor (Homo sapiens) (UniProt Q9NPC1+Q15722)"
  Obs Value: "0%"
- Compound Structure String: "O=C(O)CCc1cc(C(=O)c2cccc(C(=O)O)c2)ccc1OCCCc1ccccc1"
  Assayed System: "Leukotriene B4 receptor (Homo sapiens) (UniProt Q9NPC1+Q15722)"
  Obs Value: "60%"
- Compound Structure String: "COc1ccc(/C=C/CCCCOc2ccc(C(=O)c3cccc(C(=O)O)c3)cc2CCC(=O)O)c(OC)c1"
  Assayed System: "Leukotriene B4 receptor (Homo sapiens) (UniProt Q9NPC1+Q15722)"
  Obs Value: "100%"
- Compound Structure String: "COc1ccc(/C=C\\CCCCOc2ccc(C(=O)c3cccc(C(=O)O)c3)cc2CCC(=O)O)cc1"
  Assayed System: "Leukotriene B4 receptor (Homo sapiens) (UniProt Q9NPC1+Q15722)"
  Obs Value: "90%"
- Compound Structure String: "COc1ccccc1CCCCCCOc1ccc(C(=O)c2cccc(C(=O)O)c2)cc1CCC(=O)O"
  Assayed System: "Leukotriene B4 receptor (Homo sapiens) (UniProt Q9NPC1+Q15722)"
  Obs Value: "100%"
- Compound Structure String: "CCCCCCCCCCOc1ccc(C(=O)c2cccc(C(=O)O)c2)cc1CCC(=O)O"
  Assayed System: "Leukotriene B4 receptor (Homo sapiens) (UniProt Q9NPC1+Q15722)"
  Obs Value: "95%"
- Compound Structure String: "COc1ccc(C(=O)c2cccc(C(=O)O)c2)cc1CCC(=O)O"
  Assayed System: "Leukotriene B4 receptor (Homo sapiens) (UniProt Q9NPC1+Q15722)"
  Obs Value: "0%"
- Compound Structure String: "O=C(O)CCc1cc(C(=O)c2cccc(C(=O)O)c2)ccc1OCc1ccccc1"
  Assayed System: "Leukotriene B4 receptor (Homo sapiens) (UniProt Q9NPC1+Q15722)"
  Obs Value: "31%"
- Compound Structure String: "O=C(O)CCc1cc(C(=O)c2cccc(C(=O)O)c2)ccc1OCCc1ccccc1"
  Assayed System: "Leukotriene B4 receptor (Homo sapiens) (UniProt Q9NPC1+Q15722)"
  Obs Value: "37%"
- Compound Structure String: "O=C(O)CCc1cc(C(=O)c2cccc(C(=O)O)c2)ccc1OCCCCSc1ccccc1"
  Assayed System: "Leukotriene B4 receptor (Homo sapiens) (UniProt Q9NPC1+Q15722)"
  Obs Value: "89%"
- Compound Structure String: "COc1ccc(CCCCCCOc2ccc(C(=O)c3cccc(C(=O)O)c3)cc2CCC(=O)O)cc1"
  Assayed System: "Leukotriene B4 receptor (Homo sapiens) (UniProt Q9NPC1+Q15722)"
  Obs Value: "100%"

###

target: Leukotriene B4 receptor (Homo sapiens) (UniProt Q9NPC1+Q15722); assay: Antagonistic activity against Leukotriene B4 receptor by using [3H]- LTB4 as a radioligand at a concentration of 10e-7 M; format: functional
Recorded Metric: inhibition (%)

- Compound: "CSc1ccc(/C=C/CCCCOc2ccc(C(=O)c3cccc(C(=O)O)c3)cc2CCC(=O)O)cc1"
  Obs Value: 18
- Compound: "COc1cccc(/C=C/CCCCOc2ccc(C(=O)c3cccc(C(=O)O)c3)cc2CCC(=O)O)c1"
  Obs Value: 49
- Compound: "CC(=O)c1ccc(CCCCCCOc2ccc(C(=O)c3cccc(C(=O)O)c3)cc2CCC(=O)O)cc1"
  Obs Value: 46
- Compound: "COc1ccc(C#CCCCCOc2ccc(C(=O)c3cccc(C(=O)O)c3)cc2CCC(=O)O)cc1"
  Obs Value: 45
- Compound: "O=C(O)CCc1cc(C(=O)c2cccc(C(=O)O)c2)ccc1OCCCCCCc1ccc(Cl)cc1"
  Obs Value: 42
- Compound: "COc1ccccc1/C=C/CCCCOc1ccc(C(=O)c2cccc(C(=O)O)c2)cc1CCC(=O)O"
  Obs Value: 88
- Compound: "CS(=O)(=O)c1ccc(/C=C/CCCCOc2ccc(C(=O)c3cccc(C(=O)O)c3)cc2CCC(=O)O)cc1"
  Obs Value: 60
- Compound: "COc1ccccc1CCCCCCOc1ccc(C(=O)c2cccc(C(=O)O)c2)cc1CCC(=O)O"
  Obs Value: 3
- Compound: "COc1ccc(/C=C\\CCCCOc2ccc(C(=O)c3cccc(C(=O)O)c3)cc2CCC(=O)O)cc1"
  Obs Value: 31
- Compound: "O=C(O)CCc1cc(C(=O)c2cccc(C(=O)O)c2)ccc1OCCCC/C=C/c1ccccc1"
  Obs Value: 34
- Compound: "O=C(O)CCc1cc(C(=O)c2cccc(C(=O)O)c2)ccc1OCCCCCCc1ccc(F)cc1"
  Obs Value: 22
- Compound: "Cc1ccc(/C=C/CCCCOc2ccc(C(=O)c3cccc(C(=O)O)c3)cc2CCC(=O)O)cc1"
  Obs Value: 73
- Compound: "O=C(O)CCc1cc(C(=O)c2cccc(C(=O)O)c2)ccc1OCCCCCCCCCCc1ccccc1"
  Obs Value: 28
- Compound: "COc1ccc(/C=C/CCCCOc2ccc(C(=O)c3cccc(C(=O)O)c3)cc2CCC(=O)O)cc1"
  Obs Value: 88
- Compound: "O=C(O)CCc1cc(C(=O)c2cccc(C(=O)O)c2)ccc1OCCCCCCc1ccc(O)cc1"
  Obs Value: 43
- Compound: "COc1ccc(CCCCCCOc2ccc(C(=O)c3cccc(C(=O)O)c3)cc2CCC(=O)O)cc1"
  Obs Value: 68
- Compound: "COc1cccc(CCCCCCOc2ccc(C(=O)c3cccc(C(=O)O)c3)cc2CCC(=O)O)c1"
  Obs Value: 46
- Compound: "COc1ccc(/C=C/CCCCOc2ccc(C(=O)c3cccc(C(=O)O)c3)cc2CCC(=O)O)c(OC)c1"
  Obs Value: 66
- Compound: "C[S+]([O-])c1ccc(/C=C/CCCCOc2ccc(C(=O)c3cccc(C(=O)O)c3)cc2CCC(=O)O)cc1 (centres undefined)"
  Obs Value: 86

###

target: Leukotriene B4 receptor 1 (Homo sapiens, UniProt Q15722); experiment: Inhibition of binding of B4 (LTB4) to Leukotriene B4 receptor on intact human neutrophils at a concentration of 10e -8M.
Recorded inhibition by entry
Recorded Metric: inhibition (%)

- Compound Structure String: "CCCCCCCCOc1ccc(C(=O)c2cccc(C(=O)O)c2)cc1CCC(=O)O"
  Assayed System: "Leukotriene B4 receptor 1 (Homo sapiens, UniProt Q15722)"
  Recorded Metric: "inhibition"
  Obs Value: 0
- Compound Structure String: "O=C(O)CCc1cc(C(=O)c2cccc(C(=O)O)c2)ccc1OCCCCCCc1ccccc1"
  Assayed System: "Leukotriene B4 receptor 1 (Homo sapiens, UniProt Q15722)"
  Recorded Metric: "inhibition"
  Obs Value: 14
- Compound Structure String: "CCCCCCCCCCCCCCOc1ccc(C(=O)c2cccc(C(=O)O)c2)cc1CCC(=O)O"
  Assayed System: "Leukotriene B4 receptor 1 (Homo sapiens, UniProt Q15722)"
  Recorded Metric: "inhibition"
  Obs Value: 0
- Compound Structure String: "CCCCCCOc1ccc(C(=O)c2cccc(C(=O)O)c2)cc1CCC(=O)O"
  Assayed System: "Leukotriene B4 receptor 1 (Homo sapiens, UniProt Q15722)"
  Recorded Metric: "inhibition"
  Obs Value: 0
- Compound Structure String: "CCOc1ccc(C(=O)c2cccc(C(=O)O)c2)cc1CCC(=O)O"
  Assayed System: "Leukotriene B4 receptor 1 (Homo sapiens, UniProt Q15722)"
  Recorded Metric: "inhibition"
  Obs Value: 0
